Quick list: MIC per entry.
# Test system: Anaerobes (Bacteroides fragilis, Clostridium difficile)
# TEST NAME: Agar dilution MIC (Example 11)
# Format: cell-based
# PROTOCOL CONDITIONS: C. difficile MMX 8281; ribotype 010, CC^R; read-out: MIC
REPORTED METRIC: MIC (µg/mL)

CC(S)C(C)S.[Bi] (stereo not shown) ... 2
Cc1ncc([N+](=O)[O-])n1CCO ... 8
CCc1c(Cl)c(O)c(Cl)c(O)c1C(=O)O[C@H]1[C@H](O)[C@H](OC)[C@H](OC/C2=C\C=C\C[C@H](O)/C(C)=C/[C@H](CC)[C@@H](O[C@@H]3OC(C)(C)[C@@H](OC(=O)C(C)C)[C@H](O)[C@@H]3O)/C(C)=C/C(C)=C/C[C@@H]([C@@H](C)O)OC2=O)O[C@@H]1C ... 0.5
